Data provenance: patent US20040030106A1

Each entry below lists one item and its recorded anti-peptide (midpoint titre), average value.
test system: P15 peptides; experiment: Anti-peptide antibody response after immunisation of mice with cyclic P15-BSA conjugates; assay type: in vivo; conditions: 10 mice per group, 25 μg conjugate IM with AS2 adjuvant on days 0, 14, 28; 14 days post III
Bridge positions count the residues as written; N and C are the ends.
The answer should be a number; do not append a unit.

| SUBSTANCE | TARGET OR SYSTEM | EXPERIMENTAL VALUE |
| --- | --- | --- |
| Ac-CLEDGQVMDVDLCGGSSGGK-NH2 (disulfide 1-13 (inferred)) [P15e, 328 conjugated to BSA] | P15 peptides | 57432 |

anti-peptide (midpoint titre), average measured on Ac-CLEDGQVMDVDLCGSK-NH2 (disulfide 1-13 (inferred)) [P15c, 326 conjugated to BSA] = 66452

anti-peptide (midpoint titre), average measured on Ac-CLEDGQVMDVDLCPREAAEGDK-NH2 [P15d] = 35118

anti-peptide (midpoint titre), average measured on Ac-CLEDGQVMDCGSK-NH2 (disulfide 1-10 (inferred)) [P15b, 325 conjugated to BSA] = 11169
